Recorded values, source ChEMBL document CHEMBL1157349.

- ASSAY SYSTEM: Cholecystokinin receptor type A (Mus musculus) (UniProt O08786)
- Sequence (O08786 whole entry): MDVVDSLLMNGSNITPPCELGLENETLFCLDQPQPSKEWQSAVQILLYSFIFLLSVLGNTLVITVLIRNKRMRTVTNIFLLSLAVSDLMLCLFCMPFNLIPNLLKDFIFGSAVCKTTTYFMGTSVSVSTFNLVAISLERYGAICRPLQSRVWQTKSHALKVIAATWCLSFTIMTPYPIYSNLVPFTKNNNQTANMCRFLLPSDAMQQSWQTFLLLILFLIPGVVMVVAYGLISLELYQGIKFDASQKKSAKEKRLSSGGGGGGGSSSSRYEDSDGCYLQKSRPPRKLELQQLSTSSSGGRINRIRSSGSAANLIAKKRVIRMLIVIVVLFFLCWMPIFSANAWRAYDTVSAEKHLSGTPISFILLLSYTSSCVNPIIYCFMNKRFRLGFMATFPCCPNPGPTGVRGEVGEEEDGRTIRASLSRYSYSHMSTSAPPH
- PROCEDURE TEXT: Agonist activity at mouse CCK1 receptor relative to cholecystokinin 8
- Format: functional
Activity vs 90%: at or above is True, below is False.

QUERY: Check the entry CCOc1cccc(-n2cc(C(=O)N3CCN(c4cc(C(=O)O)c5ccccc5c4)CC3)nc2-c2ccc(C)cc2)c1 : does Activity equal or exceed 90%?
RESULT: True

QUERY: Check the entry CCOc1cccc(-n2cc(C(=O)N3CCN(c4cc(C(=O)O)c5ccccc5c4)C[C@H]3C(=O)NC(C)C)nc2-c2ccc(C)cc2)c1 : does Activity equal or exceed 90%?
RESULT: True

QUERY: Check the entry CCOc1cccc(-n2cc(C(=O)N3CCN(c4cc(C(=O)O)c5ccccc5c4)C[C@H]3CNC(C)=O)nc2-c2ccc(C)cc2F)c1 : does Activity equal or exceed 90%?
RESULT: False

QUERY: Check the entry CCOc1cccc(-n2cc(C(=O)N3CCN(c4cc(C(=O)O)c5ccccc5c4)C[C@H]3C(=O)NC(C)C)nc2-c2ccc(C)cc2F)c1 : does Activity equal or exceed 90%?
RESULT: True
